# assay_target: Adenylate kinase 2, mitochondrial (Rattus norvegicus)
# test_summary: Inhibition index was the ratio between KM of AMP and Ki of AK II
# Format: functional
value_type: Inhibition index

Use the examples below as a reference point.
compound	val
CO[C@H]1[C@@H](O)[C@H](n2cnc3c(N)ncnc32)O[C@@H]1COP(=O)(O)O	0.085
C[C@H](OP(=O)(O)O)[C@H]1OC(n2cnc3c(N)ncnc32)[C@H](O)[C@@H]1O (some centres undefined)	0.062
CNc1nc(N)c2ncn([C@@H]3O[C@H](COP(=O)(O)O)[C@@H](O)[C@H]3O)c2n1	0.027
Nc1ncnc2c1ncn2[C@@H]1O[C@H](CCP(=O)(O)O)[C@@H](O)[C@H]1O	0.032
C[C@@H]1[C@H](O)[C@@H](COP(=O)(O)O)O[C@H]1n1cnc2c(N)ncnc21	0.088
CC1O[C@@H]2[C@H](O1)[C@@H](COP(=O)(O)O)O[C@H]2n1cnc2c(N)ncnc21 (some centres undefined)	0.03
Nc1nc(Cl)nc2c1ncn2[C@@H]1O[C@H](COP(=O)(O)O)[C@@H](O)[C@H]1O	0.05
CCC[C@H](OP(=O)(O)O)[C@H]1OC(n2cnc3c(N)ncnc32)[C@H](O)[C@@H]1O (some centres undefined)	0.073
CCC1O[C@@H]2[C@H](O1)[C@@H](COP(=O)(O)O)O[C@H]2n1cnc2c(N)ncnc21 (some centres undefined)	0.03
Nc1nc(N)c2ncn([C@@H]3O[C@H](COP(=O)(O)O)[C@@H](O)[C@H]3O)c2n1	0.05

P = Nc1ncnc2c1ncn2[C@@H]1O[C@H](/C=C/P(=O)(O)O)[C@@H](O)[C@H]1O
Q = CC[C@@H](OP(=O)(O)O)[C@H]1OC(n2cnc3c(N)ncnc32)[C@H](O)[C@@H]1O (some centres undefined)
Pick one: P or Q . Which one has the lower reported Inhibition index? Please respond with the label that marks your chosen entry. Q
(Q: 0.015, P: 0.05)

1 = CC1(C)O[C@@H]2[C@H](O1)[C@@H](COP(=O)(O)O)O[C@H]2n1cnc2c(N)ncnc21
2 = C[C@@H](OP(=O)(O)O)[C@H]1OC(n2cnc3c(N)ncnc32)[C@H](O)[C@@H]1O (some centres undefined)
Pick one: 1 or 2 . Which one has the lower reported Inhibition index? Please respond with the label that marks your chosen entry. 2
